Just for reference, ChEMBL document CHEMBL1145061 is where these values come from.

Assignment: determine reported pKi for the given compounds.
system: 5-hydroxytryptamine receptor 1A (Homo sapiens)
Sequence (P08908 whole entry): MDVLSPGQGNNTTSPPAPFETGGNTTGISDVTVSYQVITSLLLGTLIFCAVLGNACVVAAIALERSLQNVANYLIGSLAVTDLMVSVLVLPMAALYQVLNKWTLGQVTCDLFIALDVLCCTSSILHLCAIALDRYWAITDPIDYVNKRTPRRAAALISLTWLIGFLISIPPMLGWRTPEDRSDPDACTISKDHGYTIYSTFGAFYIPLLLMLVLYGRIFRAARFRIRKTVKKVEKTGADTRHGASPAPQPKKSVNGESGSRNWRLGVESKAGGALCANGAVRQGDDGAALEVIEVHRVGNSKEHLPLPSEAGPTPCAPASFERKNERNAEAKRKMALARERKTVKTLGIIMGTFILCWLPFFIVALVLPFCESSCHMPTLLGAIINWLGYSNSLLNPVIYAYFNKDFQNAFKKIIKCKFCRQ
assay name: Inhibition of [3H]8-OH-DPAT binding to 5-hydroxytryptamine 1A receptor serotonergic receptor in human HeLa cells
Please note pKi is a logarithmic value: minus log10 of concentration in mol/L. Answer with that number alone.

query: Look up pKi: `Cc1c(-c2ccccc2)oc2c(C(=O)NCCCN3CCN(c4ccccc4OCc4no[n+]([O-])c4C)CC3)cccc2c1=O`
result: 8.80

query: Field request: pKi | item: `Cc1c(-c2ccccc2)oc2c(C(=O)NCCCN3CCN(c4ccccc4OCc4no[n+]([O-])c4C#N)CC3)cccc2c1=O`
result: 8.66

query: I'd like to know its pKi. The compound in question is `Cc1c(-c2ccccc2)oc2c(C(=O)NCCCN3CCN(c4ccccc4OCc4no[n+]([O-])c4C(N)=O)CC3)cccc2c1=O`
result: 8.92

query: Name the recorded pKi for `Cc1c(-c2ccccc2)oc2c(C(=O)NCCCN3CCN(c4ccccc4OCCCO[N+](=O)[O-])CC3)cccc2c1=O` .
result: 8.14

---

system: Alpha-1B adrenergic receptor (Homo sapiens, UniProt P35368)
Sequence (P35368 whole entry): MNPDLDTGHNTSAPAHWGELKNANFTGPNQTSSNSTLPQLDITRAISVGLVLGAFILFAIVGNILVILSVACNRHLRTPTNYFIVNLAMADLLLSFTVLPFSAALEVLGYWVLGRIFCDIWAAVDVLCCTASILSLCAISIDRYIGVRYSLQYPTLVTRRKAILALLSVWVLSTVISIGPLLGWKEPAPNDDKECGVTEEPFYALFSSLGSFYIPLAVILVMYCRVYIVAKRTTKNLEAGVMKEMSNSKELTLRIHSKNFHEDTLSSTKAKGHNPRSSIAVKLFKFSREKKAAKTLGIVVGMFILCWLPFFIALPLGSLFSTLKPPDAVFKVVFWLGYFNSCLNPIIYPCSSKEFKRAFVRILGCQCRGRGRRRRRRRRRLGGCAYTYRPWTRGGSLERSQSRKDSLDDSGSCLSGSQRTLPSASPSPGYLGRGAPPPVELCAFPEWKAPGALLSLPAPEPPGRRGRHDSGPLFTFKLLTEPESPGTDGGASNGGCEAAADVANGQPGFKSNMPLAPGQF
assay name: Inhibition of [3H]prazosin binding to cloned human Alpha-1B adrenergic receptor in CHO cells (chinese hamster ovary cells)
Assay type: cell-based
readout label: Ki (nM)
Response body: numeric value in nM, unit text excluded.

query: Recorded Ki of `Cc1c(-c2ccccc2)oc2c(C(=O)NCCCN3CCN(c4ccccc4OCc4no[n+]([O-])c4C)CC3)cccc2c1=O` , please.
result: 4.7

---

system: Alpha-1A adrenergic receptor (Rattus norvegicus, UniProt P43140)
Sequence (P43140 whole entry): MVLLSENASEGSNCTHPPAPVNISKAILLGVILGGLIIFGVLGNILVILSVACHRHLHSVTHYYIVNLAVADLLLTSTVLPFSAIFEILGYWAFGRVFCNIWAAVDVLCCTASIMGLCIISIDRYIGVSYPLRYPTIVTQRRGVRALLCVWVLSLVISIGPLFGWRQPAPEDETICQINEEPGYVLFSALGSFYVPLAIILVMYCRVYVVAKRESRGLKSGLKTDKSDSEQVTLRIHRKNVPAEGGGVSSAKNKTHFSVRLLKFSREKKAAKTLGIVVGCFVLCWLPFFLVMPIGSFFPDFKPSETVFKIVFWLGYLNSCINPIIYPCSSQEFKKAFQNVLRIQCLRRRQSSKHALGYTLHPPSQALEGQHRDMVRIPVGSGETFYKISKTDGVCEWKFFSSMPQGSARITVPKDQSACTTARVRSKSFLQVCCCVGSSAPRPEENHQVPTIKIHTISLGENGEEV
assay name: Functional Alpha-1A adrenergic receptor antagonistic activity of noradrenaline induced contractions in prostatic portion of rat vas deferens
Assay type: tissue-based
measurement conditions: read-out: pA2 (converted)
Provide the reported Kb of each item.
Provide the reading as a plain figure in nM.

query: Which Kb is reported for this compound? `Cc1c(-c2ccccc2)oc2c(C(=O)NCCCN3CCN(c4ccccc4OCCCO[N+](=O)[O-])CC3)cccc2c1=O`
result: 2.29

query: Which Kb is reported for this compound? `Cc1c(-c2ccccc2)oc2c(C(=O)NCCCN3CCN(c4ccccc4OCc4no[n+]([O-])c4C#N)CC3)cccc2c1=O`
result: 34.7

query: What value of Kb has been reported for the following compound? `COc1ccccc1N1CCN(CCCNC(=O)c2cccc3c(=O)c(C)c(-c4ccccc4)oc23)CC1`
result: 3.8

query: Which Kb is reported for this compound? `Cc1c(-c2ccccc2)oc2c(C(=O)NCCCN3CCN(c4ccccc4OCc4no[n+]([O-])c4C(N)=O)CC3)cccc2c1=O`
result: 10.7

query: Could you tell me which Kb is on file for `Cc1c(-c2ccccc2)oc2c(C(=O)NCCCN3CCN(c4ccccc4OCc4no[n+]([O-])c4C)CC3)cccc2c1=O` ?
result: 6.17

---

system: Adrenergic receptor alpha-2 (Rattus norvegicus, UniProt P22086+P19328+P22909)
assay name: Inhibition of [3H]- rauwolscine binding to alpha-2 adrenergic receptor in membrane of rat cerebral cortex
Assay type: tissue-based
Record form. Attribute: Ki. Fill in for each entry.

query: I have this molecule here, `Cc1c(-c2ccccc2)oc2c(C(=O)NCCCN3CCN(c4ccccc4OCc4no[n+]([O-])c4C#N)CC3)cccc2c1=O` , and I need its recorded Ki.
result: 81.1 nM

query: What Ki value was documented for this molecule, `Cc1c(-c2ccccc2)oc2c(C(=O)NCCCN3CCN(c4ccccc4OCCCO[N+](=O)[O-])CC3)cccc2c1=O` ?
result: 81.8 nM

query: Tell me the measured Ki of `Cc1c(-c2ccccc2)oc2c(C(=O)NCCCN3CCN(c4ccccc4OCc4no[n+]([O-])c4C)CC3)cccc2c1=O` , please.
result: 53.5 nM

query: Any idea what Ki was measured for `Cc1c(-c2ccccc2)oc2c(C(=O)NCCCN3CCN(c4ccccc4OCc4no[n+]([O-])c4C(N)=O)CC3)cccc2c1=O` ?
result: 359 nM
